method-summary: chemical genetic growth profiling, strain panel (AID 1159580);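 also: tested at 20 µM; growth read once vehicle control cultures reached saturation at 30 °C; lower values mean less growth of the strain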
condition-summary: S. cerevisiae deletion strains, growth OD, locus YKR091W, strain srl3
The campaign covered roughly 5,500 compounds. About 2,000 (36%) were called active. About 18% were inconclusive and are not listed. Rule as the data show it: active = normalized growth mostly below about 0.91 (no sharp cut-off); inconclusive = no clear call, values can overlap the other calls; inactive = mostly above about 0.92. Some of the results follow.
Outcome codes: True (active), False (inactive)

[[record]]
molecule = "CCCCCC1C(=O)CCC1CC(=O)O (stereo unspecified)"
class_assignment = "False"

[[record]]
molecule = "C[C@]12C=CC(=O)C=C1CCC1C3C[C@@H](O)[C@](O)(C(=O)CO)[C@@]3(C)C[C@H](O)[C@@]12F (stereo partly specified)"
class_assignment = "False"

[[record]]
molecule = "O=c1cc(-c2ccccc2)oc2cccc(O)c12"
class_assignment = "False"

[[record]]
molecule = "CC(=O)Nc1nnc(S(N)(=O)=O)s1"
class_assignment = "False"

[[record]]
molecule = "CCC(=O)Nc1ccc(Cl)c(Cl)c1"
class_assignment = "False"

[[record]]
molecule = "CN(C)CCOC(=O)C(c1ccccc1)C1(O)CCCC1 (stereo unspecified)"
class_assignment = "False"

[[record]]
molecule = "CNCCCN1c2ccccc2CCc2ccccc21"
class_assignment = "False"

[[record]]
molecule = "CCCCCC1C(=O)CCC1CC(=O)OC (stereo unspecified)"
class_assignment = "False"

[[record]]
molecule = "COc1cc([C@@H]2c3cc4c(cc3[C@H](OC(C)=O)[C@H]3COC(=O)[C@@H]23)OCO4)cc(OC)c1OC"
class_assignment = "False"

[[record]]
molecule = "CN(C(=O)CN(CCO)CC(=O)N(C)C(C)(C)Cc1ccccc1)C(C)(C)Cc1ccccc1"
class_assignment = "False"

[[record]]
molecule = "Nc1ccn(C2O[C@H](CO)[C@@H](O)[C@H]2O)c(=O)n1 (stereo partly specified)"
class_assignment = "False"

[[record]]
molecule = "COc1cc(C)c(C(=O)Oc2cc(C)c(C(=O)O)c(O)c2C)c(OC)c1C"
class_assignment = "False"

[[record]]
molecule = "Cc1cc(O)c(C=O)c2c1C(=O)Oc1c(COC(=O)/C=C/C(=O)O)c(O)c(C(=O)O)c(C)c1O2"
class_assignment = "False"

[[record]]
molecule = "CC(CN(C)C)CN1c2ccccc2CCc2ccccc21 (stereo unspecified)"
class_assignment = "False"

[[record]]
molecule = "NC(Cc1ccc(F)cc1)C(=O)O (stereo unspecified)"
class_assignment = "False"

[[record]]
molecule = "C=C1C2CC[C@@]3(C)[C@H](c4ccoc4)OC(=O)C[C@]13O[C@H]1CC(O)C(C)(C)C(CC(=O)OC)[C@@]21C (stereo partly specified)"
class_assignment = "False"

[[record]]
molecule = "O=c1cc(-c2ccccc2)oc2cc(O)c(O)c(O)c12"
class_assignment = "True"

[[record]]
molecule = "N#C/C(=C\\c1cccc(O)c1)C(=O)O"
class_assignment = "False"

[[record]]
molecule = "C[C@@H]1CC2C3CCC4=CC(=O)C=C[C@]4(C)[C@@]3(F)[C@@H](O)C[C@]2(C)[C@H]1C(=O)CO (stereo partly specified)"
class_assignment = "False"

[[record]]
molecule = "Cc1cc(C)cc(OCC2CNC(=O)O2)c1 (stereo unspecified)"
class_assignment = "False"

[[record]]
molecule = "C=Cc1c(C)c2[n-]c1=Cc1[n-]c(c(CC)c1C)C=c1[n-]c3c(c1C)C(=O)C(C(=O)[O-])C=3c1[n-]c(c(C)c1CCC(=O)[O-])C=2.[Cu] (stereo unspecified)"
class_assignment = "True"

[[record]]
molecule = "CN1CCN(C2=Nc3ccccc3Oc3ccc(Cl)cc32)CC1"
class_assignment = "False"

[[record]]
molecule = "CCOC(=O)[C@H](CCc1ccccc1)N[C@@H](C)C(=O)N1Cc2ccccc2C[C@H]1C(=O)O"
class_assignment = "False"

[[record]]
molecule = "NCC(CC(=O)O)c1ccc(Cl)cc1 (stereo unspecified)"
class_assignment = "False"

[[record]]
molecule = "NC(=O)c1ncn(C2O[C@H](CO)[C@@H](O)[C@H]2O)c1N (stereo partly specified)"
class_assignment = "False"

[[record]]
molecule = "C/C=C/C(=O)N(CC)c1ccccc1C"
class_assignment = "False"

[[record]]
molecule = "CCCC(C(=O)OCCN(CC)CC)(c1ccccc1)c1ccccc1"
class_assignment = "False"

[[record]]
molecule = "C[C@H](N)[C@H](O)c1cccc(O)c1"
class_assignment = "False"

[[record]]
molecule = "c1ccc2nc(N3CCNCC3)ccc2c1"
class_assignment = "False"

[[record]]
molecule = "C[C@@H](N)[C@@H](O)c1ccccc1"
class_assignment = "False"

[[record]]
molecule = "COc1ccc(C(=O)N2CCCC2=O)cc1"
class_assignment = "False"

[[record]]
molecule = "COc1cc(S(C)=O)ccc1-c1nc2ncccc2[nH]1 (stereo unspecified)"
class_assignment = "False"

[[record]]
molecule = "C=C1C(C2(C)C=CC(=O)C(C)(C)C2CC(=O)OC)CC[C@@]2(C)[C@H](c3ccoc3)OC(=O)C3OC132 (stereo partly specified)"
class_assignment = "False"

[[record]]
molecule = "CN(C)CCOC(=O)COc1ccc(Cl)cc1"
class_assignment = "False"

[[record]]
molecule = "Cc1cc(=O)oc2c(O)c(O)ccc12"
class_assignment = "False"

[[record]]
molecule = "Cc1nc2ccccn2c(=O)c1CCN1CCC(C(=O)c2ccc(F)cc2)CC1"
class_assignment = "False"

[[record]]
molecule = "C=C1C2CC[C@@]3(C)[C@H](c4ccoc4)OC(=O)C[C@]13O[C@H]1CC(=O)C(C)(C)C(CC(=O)OC)[C@@]21C (stereo partly specified)"
class_assignment = "False"

[[record]]
molecule = "CCN(CC)CCOC(=O)C(c1ccccc1)c1ccccc1"
class_assignment = "False"

[[record]]
molecule = "CC12CC3CC(C)(C1)CC(N)(C3)C2"
class_assignment = "False"

[[record]]
molecule = "NNCCc1ccccc1"
class_assignment = "False"

[[record]]
molecule = "CC(CN(C)C)CN1c2ccccc2Sc2ccccc21 (stereo unspecified)"
class_assignment = "False"

[[record]]
molecule = "O=c1cc(-c2ccc(O)cc2)oc2cc(O)cc(O)c12"
class_assignment = "False"

[[record]]
molecule = "S=P(N1CC1)(N1CC1)N1CC1"
class_assignment = "False"

[[record]]
molecule = "CO[C@]12C[C@@H](COC(=O)c3cncc(Br)c3)CN(C)[C@@H]1Cc1cn(C)c3cccc2c13"
class_assignment = "False"

[[record]]
molecule = "CCCCS(=N)(=O)CCC(N)C(=O)O (stereo unspecified)"
class_assignment = "False"

[[record]]
molecule = "O=c1cc(-c2ccccc2)oc2cc(O)c(O)cc12"
class_assignment = "False"

